Item-by-item account of ED50
Test system: Mus musculus
Experiment: Ability to inhibit the accumulation of gamma-interferon (gamma-IFN) in the serum of […] parvum-primed mice by po administration
Type: functional
Could you give me the number in mg/kg? Just the number is fine.

Quick one: give measured ED50 for `CCOC1(CCN2CCCC2)c2ccccc2CCc2ccccc21`
11.3

Quick one: give measured ED50 for `CCOC1(CCN(C)C)c2ccccc2C=Cc2ccccc21`
13.2

Quick one: give measured ED50 for `CCOCC1(CCN(C)C)c2ccccc2CCc2ccccc21`
13.5

Quick one: give measured ED50 for `CCOC1(CCN(C)C)c2ccccc2CCc2ccccc21`
1.3

Quick one: give measured ED50 for `CCCC1(CCCN(C)C)c2ccccc2CCc2ccccc21`
5.9

Quick one: give measured ED50 for `CCCC1(CN(C)C)c2ccccc2CCc2ccccc21`
3.9

API: the following record is the query input.
Quick one: give measured ED50 for `CCCC1(CCN(C)C)c2ccccc2CCc2ccccc21`
10.8

---

Tested on: Mus musculus
Experiment: Ability to inhibit the accumulation of gamma-interferon (gamma-IFN) in the serum of […] parvum-primed mice by po administration
Type: functional
RECORDED_ENDPOINT: ED50

Quick one: give measured ED50 for `CCOCC1(CCNC)c2ccccc2CCc2ccccc21`
> 25 mg/kg

Quick one: give measured ED50 for CCOC1(CCN(C)C)c2ccccc2CCc2cccnc21 (stereo not given)
> 25 mg/kg

***
Quick one: give measured ED50 for `CCCCCCC1(CCN(C)C)c2ccccc2CCc2ccccc21`
> 25 mg/kg

Quick one: give measured ED50 for `CCOC1(CCN(C)C(C)=O)c2ccccc2CCc2ccccc21`
> 25 mg/kg

Quick one: give measured ED50 for `CN(C)CCC1(O)c2ccccc2CCc2ccccc21`
> 25 mg/kg
